Biological target: BRD3 BD1 (Homo sapiens)
Construct: T7 phage display (bromodomain fused to phage)
Sequence (Q15059 34-140 limits assumed): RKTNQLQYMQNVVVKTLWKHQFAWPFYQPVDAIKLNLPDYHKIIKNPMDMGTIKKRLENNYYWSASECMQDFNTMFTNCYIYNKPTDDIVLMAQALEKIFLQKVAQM
Experiment: Bromoscan (Eurofins) binding: BRD3 BD1
property-measured: Kd (nM)

>>> df
                                   molecule        target_under_test  property_measured  test_value
0  COc1ccccc1[C@H]1CC(=O)C2=C(C1)NC(C)=C(C(=O)OC1CCOCC1)[C@H]2c1cccc(O)c1 [13a]  BRD3 BD1 (Homo sapiens)                 Kd         150

###

Test system: coronin 1 promoter
Assay: EC50 analysis for coronin 1 promoter driven GFP inhibition by flow cytometry in RBL cells
Assay type: cell-based
Settings: [EC50 GFP inhibition 13a]/[EC50 GFP inhibition compound of interest]; 13a = 1.00
The label depends only on rel. potency GFP inhibition: Satisfied if it is at least 0.2, Not satisfied if it is smaller.

In [3]: df
Out[3]:
                                   compound   target_under_test  assigned_label
0  CCOCCOCCOC(=O)C1=C(C)NC2=C(C(=O)C[C@H](c3ccccc3OC)C2)[C@@H]1c1cccc(O)c1 [64a]  coronin 1 promoter       Satisfied
1  COc1ccccc1[C@H]1CC(=O)C2=C(C1)NC(C)=C(C(=O)OC[C@H]1CCCO1)[C@H]2c1cccc(O)c1 [12g]  coronin 1 promoter       Satisfied
2  COc1ccccc1[C@H]1CC(=O)C2=C(C1)NC(C)=C(C(=O)OC1CC3CCC(C1)O3)[C@H]2c1cccc(O)c1 (stereo partly shown) [53a]  coronin 1 promoter       Satisfied
3  COc1ccccc1[C@H]1CC(=O)C2=C(C1)NC(C)=C(C(=O)O[C@H]1CO[C@H]3OCC[C@H]31)[C@H]2c1cccc(O)c1 [55a]  coronin 1 promoter       Satisfied
4  COc1ccccc1[C@H]1CC(=O)C2=C(C1)NC(C)=C(C(=O)OCCCC(C)(C)C)[C@H]2c1cccc(O)c1 [63a]  coronin 1 promoter   Not satisfied
5  COc1ccccc1[C@H]1CC(=O)C2=C(C1)NC(C)=C(C(=O)OC1CCCCC1)[C@H]2c1cccc(O)c1 [57a]  coronin 1 promoter       Satisfied
6  COc1ccccc1[C@H]1CC(=O)C2=C(C1)NC(C)=C(C(=O)OC1CCOCC1)[C@@H]2c1cccc(O)c1 [13f]  coronin 1 promoter   Not satisfied

###

Listed below: Kd values for each entry.
Biological target: BRD3 BD2 (Homo sapiens)
Construct: T7 phage display (bromodomain fused to phage)
Sequence (Q15059 306-415 limits assumed): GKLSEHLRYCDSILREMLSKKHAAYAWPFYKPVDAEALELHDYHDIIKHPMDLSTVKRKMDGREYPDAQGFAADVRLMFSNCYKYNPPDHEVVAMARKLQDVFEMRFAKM
Test: Bromoscan (Eurofins) binding: BRD3 BD2
property-measured: Kd

In [3]: df
Out[3]:
                                   molecule        target_under_test  test_value
0  COc1ccccc1[C@H]1CC(=O)C2=C(C1)NC(C)=C(C(=O)OC1CCOCC1)[C@H]2c1cccc(O)c1 [13a]  BRD3 BD2 (Homo sapiens)        4 nM
1  COc1ccccc1[C@H]1CC(=O)C2=C(C1)NC(C)=C(C(=O)OC[C@@H]1CCCO1)[C@H]2c1cccc(O)c1 [12e]  BRD3 BD2 (Homo sapiens)      ~10 nM

###

Tested on: coronin 1 promoter
Assay: EC50 analysis for coronin 1 promoter driven GFP inhibition by flow cytometry in RBL cells
Format: cell-based
Conditions: [EC50 GFP inhibition 13a]/[EC50 GFP inhibition compound of interest]; 13a = 1.00
property-measured: rel. potency GFP inhibition

In [3]: df
Out[3]:
                                   compound  result_operator  test_value
0  COc1ccccc1[C@H]1CC(=O)C2=C(C1)NC(C)=C(C(=O)OC1CCOCC1)C2c1ccc(F)c(O)c1 (mixture of isomers) [66b]                =        0.25
1  COc1ccccc1[C@H]1CC(=O)C2=C(C1)NC(C)=C(C(=O)OC1CCCC1)[C@H]2c1cccc(O)c1 [56a]                =        0.21
2  COc1ccccc1[C@H]1CC(=O)C2=C(C1)NC(C)=C(C(=O)OCC(C)(C)C)[C@H]2c1cccc(O)c1 [60a]                =        0.20
3  COc1ccccc1[C@H]1CC(=O)C2=C(C1)NC(C)=C(C(=O)O[C@H]1CCOC1)[C@H]2c1cccc(O)c1 [50a]                =        0.73
4  CCOC(=O)C1=C(C)NC2=C(C(=O)C[C@H](c3ccccc3OC)C2)[C@@H]1c1cccc(O)c1 [58a]                =        0.36
5  COc1ccccc1[C@H]1CC(=O)C2=C(C1)NC(C)=C(C(=O)OC1CCCOCC1)[C@H]2c1cccc(O)c1 (mixture of isomers) [54a]                =        0.88
6  COc1ccccc1[C@@H]1CC(=O)C2=C(C1)NC(C)=C(C(=O)OC1CCOCC1)[C@H]2c1cccc(O)c1 [13e]                <        0.01
